Just for reference, ChEMBL document CHEMBL4425163 is where these values come from.

Item-by-item account of MIC
Tested on: Staphylococcus aureus
Test: Antibacterial activity against methicillin resistant Staphylococcus aureus clinical isolate 6 incubated […] by microdilution resazurin assay
Format: functional
Conditions: Staphylococcus aureus, isolate 6; read-out: MIC

- COMPOUND: "COc1ccc(CCC(=O)c2c(O)cc(O)c3c2O[C@@H](c2ccc(O)cc2)CC3)cc1"
  SYSTEM UNDER TEST: "Staphylococcus aureus"
  OPERATOR SYMBOL: "="
  MIC, µM: 25
- COMPOUND: "COc1ccc(CCC(=O)c2c(O)cc(O)c(C/C=C/c3ccc(O)cc3)c2O)cc1"
  SYSTEM UNDER TEST: "Staphylococcus aureus"
  OPERATOR SYMBOL: "="
  MIC, µM: 25
- COMPOUND: "O=C(CCc1ccc(O)cc1)c1c(O)cc(O)c2c1O[C@H](c1ccc(O)cc1)[C@@H](C/C=C/c1ccc(O)cc1)C2"
  SYSTEM UNDER TEST: "Staphylococcus aureus"
  OPERATOR SYMBOL: "="
  MIC, µM: 3
- COMPOUND: "O=C(CCc1ccccc1)c1c(O)c2c(c3c1OC(c1ccc(O)cc1)C(C/C=C/c1ccc(O)cc1)C3)OC(c1ccc(O)cc1)C(C/C=C/c1ccc(O)cc1)C2 (racemic; form 1)"
  SYSTEM UNDER TEST: "Staphylococcus aureus"
  OPERATOR SYMBOL: ">"
  MIC, µM: 50
- COMPOUND: "COc1ccc(CCC(=O)c2c(O)c3c(c4c2O[C@@H](c2ccc(O)cc2)[C@H](C/C=C/c2ccc(O)cc2)C4)O[C@@H](c2ccc(O)cc2)[C@H](O)C3)cc1 (racemic)"
  SYSTEM UNDER TEST: "Staphylococcus aureus"
  OPERATOR SYMBOL: "="
  MIC, µM: 50
- COMPOUND: "COc1ccc(CCC(=O)c2c(O)cc(O)c3c2O[C@H](c2ccc(O)cc2)CC3)cc1"
  SYSTEM UNDER TEST: "Staphylococcus aureus"
  OPERATOR SYMBOL: ">"
  MIC, µM: 50
- COMPOUND: "COc1cc(O)c(C(=O)CCc2ccc(O)cc2)c(O)c1C/C=C/c1ccc(O)cc1"
  SYSTEM UNDER TEST: "Staphylococcus aureus"
  OPERATOR SYMBOL: "="
  MIC, µM: 50

---

Experiment: Cytotoxicity against human WS1 cells by resazurin reduction assay
Assay type: cell-based
Item-by-item account of IC50

- MOLECULE: "O=C(CCc1ccccc1)c1c(O)c2c(c3c1OC(c1ccc(O)cc1)C(C/C=C/c1ccc(O)cc1)C3)OC(c1ccc(O)cc1)C(C/C=C/c1ccc(O)cc1)C2 (racemic; form 2)"
  OPERATOR SYMBOL: ">"
  IC50 (nM): 10000
- MOLECULE: "O=C(CCc1ccccc1)c1c(O)c2c(c3c1OC(c1ccc(O)cc1)C(C/C=C/c1ccc(O)cc1)C3)OC(c1ccc(O)cc1)C(C/C=C/c1ccc(O)cc1)C2 (racemic; form 1)"
  OPERATOR SYMBOL: "="
  IC50 (nM): 2300

---

Tested on: Staphylococcus aureus
Assay: Antibacterial activity against methicillin resistant Staphylococcus aureus clinical isolate 6 incubated […] by microdilution resazurin assay
Assay type: functional
Conditions: Staphylococcus aureus, isolate 6; read-out: MIC

- COMPOUND: "O=C(CCc1ccccc1)c1c(O)cc(O)c2c1OC(c1ccc(O)cc1)C(O)C2 (stereo in doubt; (-)-15)"
  OPERATOR SYMBOL: "="
  MIC, µM: 50
- COMPOUND: "O=C(CCc1ccc(O)cc1)c1c(O)cc(O)c2c1O[C@@H](c1ccc(O)cc1)[C@H](C/C=C/c1ccc(O)cc1)C2"
  OPERATOR SYMBOL: "="
  MIC, µM: 13
- COMPOUND: "COc1ccc(CCC(=O)c2c(O)cc(O)c(C(c3ccc(O)cc3)C(C/C=C/c3ccc(O)cc3)COC(=O)/C=C/c3ccccc3)c2O)cc1 (racemic)"
  OPERATOR SYMBOL: ">"
  MIC, µM: 50
- COMPOUND: "COc1ccc(CCC(=O)c2c(O)c(C/C=C/c3ccc(O)cc3)c(O)c3c2O[C@@H](c2ccc(O)cc2)[C@H](C/C=C/c2ccc(O)cc2)C3)cc1 (racemic)"
  OPERATOR SYMBOL: "="
  MIC, µM: 6
- COMPOUND: "O=C(CCc1ccccc1)c1c(O)cc(O)c(C/C=C/c2ccc(O)cc2)c1O"
  OPERATOR SYMBOL: "="
  MIC, µM: 50
- COMPOUND: "O=C(CCc1ccccc1)c1c(O)cc2c(c1O)C[C@@H](C/C=C/c1ccc(O)cc1)[C@H](c1ccc(O)cc1)O2 (racemic)"
  OPERATOR SYMBOL: ">"
  MIC, µM: 50
- COMPOUND: "COc1ccc(CCC(=O)c2c(O)c3c(c4c2OC(c2ccc(O)cc2)C(C/C=C/c2ccc(O)cc2)C4)OC(c2ccc(O)cc2)C(C/C=C/c2ccc(O)cc2)C3)cc1 (racemic)"
  OPERATOR SYMBOL: ">"
  MIC, µM: 50
- COMPOUND: "O=C(/C=C/c1ccccc1)OCC(C/C=C/c1ccc(O)cc1)C(c1ccc(O)cc1)c1c(O)cc(O)c(C(=O)CCc2ccccc2)c1O (racemic)"
  OPERATOR SYMBOL: "="
  MIC, µM: 25
- COMPOUND: "COc1cc(O)c(C(=O)CCc2ccc(O)cc2)c2c1CCC(c1ccc(O)cc1)O2 (centres undefined)"
  OPERATOR SYMBOL: "="
  MIC, µM: 50

---

Item-by-item account of MIC
Tested on: Staphylococcus aureus
Assay: Antibacterial activity against methicillin resistant Staphylococcus aureus clinical isolate 6 incubated […] by microdilution resazurin assay
Assay type: functional
Details: Staphylococcus aureus, isolate 6; read-out: MIC

- COMPOUND: "O=C(CCc1ccccc1)c1c(O)cc(O)c2c1OC(c1ccc(O)cc1)CC2 (stereo in doubt; (-)-12)"
  MIC [µM]: 13
- COMPOUND: "COc1ccc(CCC(=O)c2c(O)cc(O)c3c2OC(c2ccc(O)cc2)C(O)C3)cc1 (stereo in doubt; (-)-16)"
  MIC [µM]: 50
- COMPOUND: "O=C(CCc1ccccc1)c1c(O)c2c(c3c1O[C@@H](c1ccc(O)cc1)[C@H](C/C=C/c1ccc(O)cc1)C3)O[C@@H](c1ccc(O)cc1)[C@H](O)C2 (racemic)"
  MIC [µM]: 6
- COMPOUND: "O=C(CCc1ccccc1)c1c(O)cc2c(c1O)CC(O)C(c1ccc(O)cc1)O2 (stereo in doubt; (-)-17)"
  MIC [µM]: 50

---

Item-by-item account of MIC
Test system: Staphylococcus aureus
Assay: Antibacterial activity against methicillin resistant Staphylococcus aureus clinical isolate 8 incubated […] by microdilution resazurin assay
Assay type: functional

- COMPOUND: "O=C(CCc1ccccc1)c1c(O)cc(O)c2c1OC(c1ccc(O)cc1)CC2 (stereo in doubt; (-)-12)"
  MIC, µM: 6
- COMPOUND: "O=C(CCc1ccccc1)c1c(O)cc2c(c1O)CC(O)C(c1ccc(O)cc1)O2 (stereo in doubt; (+)-17)"
  MIC, µM: 50
- COMPOUND: "O=C(CCc1ccccc1)c1c(O)cc(O)c2c1OC(c1ccc(O)cc1)C(O)C2 (stereo in doubt; (+)-15)"
  MIC, µM: 25
- COMPOUND: "O=C(CCc1ccccc1)c1c(O)cc(O)c2c1OC(c1ccc(O)cc1)CC2 (single isomer, unassigned; (+))"
  MIC, µM: 13
- COMPOUND: "COc1ccc(CCC(=O)c2c(O)cc(O)c3c2OC(c2ccc(O)cc2)C(O)C3)cc1 (stereo in doubt; (+)-16)"
  MIC, µM: 50

---

Item-by-item account of MIC
System: Staphylococcus aureus
Assay: Antibacterial activity against methicillin resistant Staphylococcus aureus clinical isolate 5 incubated […] by microdilution resazurin assay
Assay type: functional
Conditions: Staphylococcus aureus, isolate 5; read-out: MIC

- MOLECULE: "O=C(CCc1ccccc1)c1c(O)cc2c(c1O)C[C@@H](C/C=C/c1ccc(O)cc1)[C@H](c1ccc(O)cc1)O2 (racemic)"
  OPERATOR SYMBOL: ">"
  MIC (µM): 50
- MOLECULE: "O=C(CCc1ccccc1)c1c(O)c2c(c3c1O[C@@H](c1ccc(O)cc1)[C@H](C/C=C/c1ccc(O)cc1)C3)O[C@@H](c1ccc(O)cc1)[C@H](O)C2 (racemic)"
  OPERATOR SYMBOL: "="
  MIC (µM): 6
- MOLECULE: "O=C(CCc1ccc(O)cc1)c1c(O)cc(O)c2c1O[C@@H](c1ccc(O)cc1)[C@H](C/C=C/c1ccc(O)cc1)C2"
  OPERATOR SYMBOL: "="
  MIC (µM): 13
